Listed below: T/C values for each entry.
- System: P388 leukemia ip, CD2F1 mice, survival T/C
- protocol details: NCI In Vivo Anticancer Drug Screen. Data for tumor model P388 Leukemia (intraperitoneal) in CD2F1 (CDF1) mice
- test parameters: endpoint: median survival time; dose: 25.0 mg/kg/injection; schedule: Q01DX009 (ip); vehicle: saline with Tween-80; higher = longer survival
Toxic doses and inconclusive results are not listed.

# compound, T/C
measured = [
    ("CC(C(=O)N1c2ccccc2Sc2ccccc21)[N+](C)(C)C (stereo unspecified)", "110 % of control"),
    ("NC(=S)/C(N)=N/Nc1ccc(Cl)cc1", "106 % of control"),
    ("CCOC(=O)c1sc(N)nc1C", "105 % of control"),
    ("O=c1[nH]cnc2nn(C3OC(CO)C(O)C3O)cc12 (stereo unspecified)", "96 % of control"),
    ("C1CCC(N2OC23CCCCC3)CC1 (stereo unspecified)", "113 % of control"),
    ("Clc1ccc(-c2n[se]c(-c3ccc(Cl)cc3)n2)cc1", "87 % of control"),
]

* * *

- Tested on: P388 leukemia ip, CD2F1 mice, survival T/C
- protocol details: NCI In Vivo Anticancer Drug Screen. Data for tumor model P388 Leukemia (intraperitoneal) in CD2F1 (CDF1) mice
- test parameters: endpoint: median survival time; dose: 60.0 mg/kg/injection; schedule: Q01DX005 (ip); vehicle: Klucel (hydroxypropylcellulose) (HPC); higher = longer survival
Inconclusive results and toxic doses are left out.
Listed below: T/C values for each entry.
property measured: T/C

# compound, tested on, endpoint result
rows = [
    ("CC(/C=C/c1cccc(C)c1)=N\\NC(N)=O", "P388 leukemia ip, CD2F1 mice, survival T/C", "107 % of control"),
    ("CCOC1=C(C#N)C(=O)NC2OC(CO)C(O)C2O1 (centres undefined)", "P388 leukemia ip, CD2F1 mice, survival T/C", "104 % of control"),
    ("CCc1c(C)[nH]n(C(N)=NCCSCc2nc[nH]c2C)c1=O", "P388 leukemia ip, CD2F1 mice, survival T/C", "108 % of control"),
    ("O=c1cc(CC2(O)CCCCC2)c2ccccc2[nH]1", "P388 leukemia ip, CD2F1 mice, survival T/C", "95 % of control"),
    ("O=C1CC2CCC(CN2C(=O)OCc2ccccc2)O1 (centres undefined)", "P388 leukemia ip, CD2F1 mice, survival T/C", "102 % of control"),
    ("COc1ccc(C(c2cc3c(cc2O)OCO3)N2CCCCC2)c(OC)c1 (centres undefined)", "P388 leukemia ip, CD2F1 mice, survival T/C", "108 % of control"),
    ("COc1cc2c(cc1OC)C(c1cccc(Cl)c1)=NN=C(C)C2", "P388 leukemia ip, CD2F1 mice, survival T/C", "105 % of control"),
    ("Nc1ccc(S(=O)(=O)Nc2c(N)nc(SCC(=O)O)[nH]c2=O)cc1", "P388 leukemia ip, CD2F1 mice, survival T/C", "92 % of control"),
    ("O=S(=O)(c1ccc(Cl)cc1)N(CCCCCN(S(=O)(=O)c1ccc(Cl)cc1)S(=O)(=O)c1ccc(Cl)cc1)S(=O)(=O)c1ccc(Cl)cc1", "P388 leukemia ip, CD2F1 mice, survival T/C", "105 % of control"),
    ("CCOC(=O)C(Cc1ccc(O)c(C=O)c1)NC(C)=O (centres undefined)", "P388 leukemia ip, CD2F1 mice, survival T/C", "96 % of control"),
    ("CCC1(N(C)C)C(=O)NC(=O)N(C)C1=O (centres undefined)", "P388 leukemia ip, CD2F1 mice, survival T/C", "103 % of control"),
    ("CC1(C)C(=O)C2=C(OC3([Se]2)C(=O)C(C)(C)C(=O)C(C)(C)C3=O)C(C)(C)C1=O", "P388 leukemia ip, CD2F1 mice, survival T/C", "99 % of control"),
    ("O=C(O)C1C2CC3CC2C(C3)C1C(=O)O (centres undefined)", "P388 leukemia ip, CD2F1 mice, survival T/C", "100 % of control"),
    ("O=C(O)c1cnc2cc3c(cc2c1Nc1ccc2c(c1)OCO2)OCO3", "P388 leukemia ip, CD2F1 mice, survival T/C", "93 % of control"),
    ("NS(=O)(=O)Oc1ccc(Cl)cc1C(=O)Oc1ccc(Cl)cc1", "P388 leukemia ip, CD2F1 mice, survival T/C", "91 % of control"),
    ("C[N+](C)=c1ccc2nc3c(cc(Nc4ccccc4)c4ccccc43)oc-2c1", "P388 leukemia ip, CD2F1 mice, survival T/C", "88 % of control"),
    ("COc1ccc(C2OC3=C(Nc4ccc([N+](=O)[O-])cc4N3)C2=O)cc1OC (centres undefined)", "P388 leukemia ip, CD2F1 mice, survival T/C", "89 % of control"),
    ("CC(C)CCCC(C)C1CCC2C3CCC4C5Oc6ccccc6N=C5CCC4(C)C3CCC12C (centres undefined)", "P388 leukemia ip, CD2F1 mice, survival T/C", "92 % of control"),
    ("CCOc1ccc(-n2c(-c3ccc(F)cc3)c(N=Nc3ccccc3)sc2=N)cc1", "P388 leukemia ip, CD2F1 mice, survival T/C", "96 % of control"),
]

Source listed as PubChem BioAssay AID330.
